Provide the reported pKi of each item.
- study target: NanC (Streptococcus pneumoniae, UniProt A0A0H2UQE4)
- Sequence (A0A0H2UQE4 entry or part of it): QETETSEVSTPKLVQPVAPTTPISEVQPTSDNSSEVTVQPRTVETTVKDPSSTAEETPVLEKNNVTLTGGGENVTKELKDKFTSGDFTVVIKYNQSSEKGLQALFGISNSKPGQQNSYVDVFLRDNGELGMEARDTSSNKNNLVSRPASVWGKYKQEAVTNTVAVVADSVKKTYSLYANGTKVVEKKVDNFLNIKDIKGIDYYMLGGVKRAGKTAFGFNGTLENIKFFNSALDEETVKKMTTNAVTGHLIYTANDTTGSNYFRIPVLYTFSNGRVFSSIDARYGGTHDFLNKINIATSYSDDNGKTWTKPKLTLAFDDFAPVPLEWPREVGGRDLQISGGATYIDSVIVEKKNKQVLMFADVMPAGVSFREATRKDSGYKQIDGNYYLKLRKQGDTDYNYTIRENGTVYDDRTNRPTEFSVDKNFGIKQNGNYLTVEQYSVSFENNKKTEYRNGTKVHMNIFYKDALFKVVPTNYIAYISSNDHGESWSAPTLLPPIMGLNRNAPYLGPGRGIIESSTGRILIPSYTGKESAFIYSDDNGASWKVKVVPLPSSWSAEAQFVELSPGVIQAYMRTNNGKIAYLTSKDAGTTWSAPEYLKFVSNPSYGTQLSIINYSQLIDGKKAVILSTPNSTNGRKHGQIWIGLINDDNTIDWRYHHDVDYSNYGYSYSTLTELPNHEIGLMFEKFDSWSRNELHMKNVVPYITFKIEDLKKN
pKi: −log10 of the molar value.

Solved entries (count: 2):
CC(=O)N[C@H]1[C@H]([C@H](O)[C@H](O)CO)OC(C(=O)O)=C[C@@H]1O; 2.70
CC(=O)N[C@H]1[C@H]([C@H](O)[C@H](O)CO)OC(C(=O)O)=C[C@@H]1N=C(N)N; < 2.12

The molecule listed as CCC(CC)O[C@@H]1C=C(C(=O)O)C[C@H](N)[C@H]1NC(C)=O [Oseltamivir carboxylate] shows pKi equal to < 2.12

====

- study target: NanB (Streptococcus pneumoniae serotype 4, UniProt Q54727)
- Sequence (Q54727 30-697): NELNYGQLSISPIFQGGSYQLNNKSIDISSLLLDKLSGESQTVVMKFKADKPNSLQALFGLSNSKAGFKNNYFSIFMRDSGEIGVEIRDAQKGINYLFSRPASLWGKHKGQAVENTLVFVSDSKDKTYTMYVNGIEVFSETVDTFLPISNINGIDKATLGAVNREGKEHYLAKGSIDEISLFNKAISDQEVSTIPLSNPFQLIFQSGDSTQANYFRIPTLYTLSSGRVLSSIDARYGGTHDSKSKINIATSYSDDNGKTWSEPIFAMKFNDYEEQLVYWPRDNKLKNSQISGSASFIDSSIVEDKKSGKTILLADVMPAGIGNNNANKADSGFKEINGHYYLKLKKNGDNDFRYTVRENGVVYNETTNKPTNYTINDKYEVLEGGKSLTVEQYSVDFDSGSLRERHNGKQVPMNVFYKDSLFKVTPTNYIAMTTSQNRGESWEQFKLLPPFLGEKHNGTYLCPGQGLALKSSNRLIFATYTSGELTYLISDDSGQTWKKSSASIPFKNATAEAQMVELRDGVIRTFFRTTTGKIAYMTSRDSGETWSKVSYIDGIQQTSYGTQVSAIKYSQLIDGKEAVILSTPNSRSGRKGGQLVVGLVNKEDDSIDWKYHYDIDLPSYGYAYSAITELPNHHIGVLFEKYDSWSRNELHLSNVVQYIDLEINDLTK
Provide the reported Ki of each item.

CC(=O)N[C@H]1[C@H]([C@H](O)[C@H](O)CO)OC(C(=O)O)=C[C@@H]1N=C(N)N [Zanamivir]; > 7.5 mM

The compound listed as CCC(CC)O[C@@H]1C=C(C(=O)O)C[C@H](N)[C@H]1NC(C)=O [Oseltamivir carboxylate] shows Ki equal to > 7.5 mM
